Test details: counter assay for TAg ATPase ADP read-out – biochemical, ADP-Hunter, fluorescence, counter-screen (AID 2501);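 note: purified T antigen ATPase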
Experimental context: series mostly up to 100 µM
In all, about 2,200 compounds went through this assay and about 1,200 (55%) were called active. No cut-off is given here; in the data, nearly all actives have IC50 up to about 92 µM. The set was probably picked from earlier hits. This is one part of the list.
Result category, one only: 1 for active, -1 for inactive

Study these solved cases before continuing.
Incoming: State the result this test recorded for Cc1cc(/C=C2\SC(=S)NC2=O)c(C)n1-c1cccc(O)c1 .
Outgoing: -1

Incoming: Status in this test for COc1cc(/C=N/NC(=O)c2ccccc2O)ccc1OC(=O)CC1SC(=O)NC1=O (stereo not drawn) ?
Outgoing: 1

Incoming: Please share the test call associated with Oc1ccc(-c2nc3ncccn3c2Nc2ccc3c(c2)OCO3)cc1 .
Outgoing: 1

Incoming: For C/C(=N/NC(=O)CSc1nc2ccccc2n1C)c1ccc(O)cc1 , which call appears in the assay record?
Outgoing: 1

Incoming: Returns: the outcome recorded for COc1cc(-c2nc3cnccn3c2Nc2ccccc2)ccc1O in this assay.
Outgoing: 1

Incoming: // return assay outcome for COc1ccc(NC2CCCN(Cc3cccc4cnccc34)C2)cc1OC (stereo not drawn)
Outgoing: 1

Incoming: Record request — test call for Cc1nc(-c2ccc(O)c(O)c2)cs1
Outgoing: 1

Incoming: For this compound, state the assay outcome: CN(C)c1ccc(-c2nc3cnccn3c2Nc2ccc3c(c2)OCCO3)cc1
Outgoing: 1

Next:
Incoming: Entry C=CCOc1ccccc1CNc1ccc2[nH]c(=O)[nH]c2c1 : call = ?
Outgoing: 1

Incoming: What did this assay record as the result for CCC[n+]1c2ccccc2cc2ccccc21 ?
Outgoing: -1

Incoming: Record lookup: outcome of this test for C=CCOc1c(CNc2ccc3[nH]c(=O)[nH]c3c2)cccc1OC ?
Outgoing: 1

Incoming: Record request — test call for Oc1ccc(-c2nc(-c3ccc(O)c(O)c3)cs2)cc1
Outgoing: 1

Incoming: What classification did Cc1c(NC(=O)COC(=O)COc2ccc(Nc3ccccc3)cc2)c(=O)n(-c2ccccc2)n1C end up with in this test?
Outgoing: 1

Incoming: Outcome? O=C1N/C(=C\c2ccc(O)cc2)C(O)=C1C=NCc1ccccc1
Outgoing: 1

Incoming: Test call, this compound: c1ccc(-c2ccc3c(c2)NCCN3)cc1
Outgoing: 1

Incoming: Which outcome was assigned to N#CCn1c(CCl)nc2ccccc2c1=O in this test?
Outgoing: -1

Incoming: Outcome logged for COc1ccc(-c2nnc(SC(C)C(=O)Nc3c(C)n(C)n(-c4ccccc4)c3=O)o2)cc1 (stereo not drawn) in this assay:
Outgoing: -1

Incoming: Test call for this compound, please: COc1cc(-c2csc(C)n2)ccc1O
Outgoing: 1

Incoming: Please share the test call associated with CC(C)CN(Cc1c(O)ccc2c3c(c(=O)oc12)CCC3)CC(C)C .
Outgoing: 1

Incoming: Status in this test for Cc1c(N=C2NC(=O)/C(=C/c3ccc(O)cc3)S2)c(=O)n(-c2ccccc2)n1C ?
Outgoing: 1

Incoming: # fetch the recorded call for O=C(Nc1ccc2[nH]c(=O)[nH]c2c1)c1cccc([N+](=O)[O-])c1 here
Outgoing: -1

Incoming: What did the test return for O=C1NC(=NCc2ccccc2)S/C1=C/c1ccc(O)cc1 ?
Outgoing: 1

Incoming: Recorded test call requested for O=C(CC1SC(=O)NC1=O)Oc1ccc(/C=N/NC(=O)c2ccccc2O)cc1 (stereo not drawn)
Outgoing: 1

###

Test details: counter assay for TAg ATPase ADP read-out – biochemical, ADP-Hunter, fluorescence, counter-screen (AID 2501);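 note: purified T antigen ATPase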
Experimental context: series mostly up to 100 µM
The campaign covered roughly 2,200 compounds. About 1,200 (55%) were called active. The limit is not given here; nearly all actives have IC50 up to about 92 µM. So high a share suggests a set chosen from earlier hits. The list shows a part of the results.
Mark one answer only. Choices: y (active), n (inactive)

Solved cases below.
Incoming: What did this assay record as the result for CC(c1ccncn1)N(C)Cc1nc(Cc2ccccc2F)no1 (stereo not given) ?
Outgoing: n

Incoming: Tell me the assay call for CN(C)c1ccc(Nc2nc(-c3cccnc3)cs2)cc1 please.
Outgoing: y

Incoming: Could you check what this test reported for CCOc1cc(/C=C2\SC(=O)N=C2N)ccc1O ?
Outgoing: y

Incoming: Record lookup: outcome of this test for CCOc1cc(N2CCOCC2)c(OCC)cc1NS(=O)(=O)c1ccc(Cl)s1 ?
Outgoing: y

Incoming: Name the outcome recorded for Nc1cc(CN2C(=O)c3ccccc3C2=O)cc(Cl)c1O in the assay.
Outgoing: y

Incoming: Per the records of this test, what outcome belongs to CN(C)c1ccc(NC(=O)CN2CCN(CC(=O)Nc3ccc(F)cc3)CC2)cc1 ?
Outgoing: y

Incoming: Look up the recorded call for CC1CCN(CC(C)OC(=O)c2ccc3c(c2)OCCO3)CC1 (stereo not given) in this test.
Outgoing: n

Incoming: Look up the recorded call for Cc1ccsc1C=Nc1ccc(O)cc1 in this test.
Outgoing: y

Incoming: Write down the call the test reported for this compound. Item: CCOc1ccc(NC(=O)Cn2sc3nc(C)cc(C)c3c2=O)cc1
Outgoing: n

Incoming: Would you mind telling me which call this test gave CCN(CC)c1ccc(NC(=O)CSc2nc3nc(C)cc(C)c3c(=O)[nH]2)cc1 ?
Outgoing: y

***
Incoming: Which outcome did this test record for the compound O=C1NC(=S)CN1c1ccccc1 ?
Outgoing: n

Incoming: Status in this test for Nc1ccc2nc(-c3cccs3)[nH]c2c1 ?
Outgoing: y

Incoming: # fetch the recorded call for COc1c2ccoc2nc2c(OC)c(O)ccc12 here
Outgoing: y

###

Test details: counter assay for TAg ATPase ADP read-out – biochemical, ADP-Hunter, fluorescence, counter-screen (AID 2501);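 note: purified T antigen ATPase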
Experimental context: series mostly up to 100 µM
Among all 2,200 compounds or so, about 1,200 (55%) were called active. No cut-off is given here; in the data, nearly all actives have IC50 up to about 92 µM. The set was probably picked from earlier hits. The list shows a part of the results.
Write down the outcome that applies. Available outcomes: TRUE = active, FALSE = inactive

Incoming: Record request — test call for COc1ccc(CC(=O)N/N=C(\C)CC(=O)Nc2ccc(N(C)C)cc2)cc1OC
Outgoing: TRUE

Continuing:
Incoming: Hey, what did the test say about OC1CCN(C(=S)Nc2ccc(Nc3ccccc3)cc2)CC1 ?
Outgoing: TRUE

Incoming: How was CC(=O)Nc1ccc(N2CCCCC2)cc1 classified in this test?
Outgoing: TRUE

Incoming: Please share the test call associated with O=Cc1coc2c(ccc3ccccc32)c1=O .
Outgoing: TRUE

Incoming: Record request — test call for C/C(=N\NC(=O)CCC(=O)Nc1ccc(C)c(C)c1)c1cccs1
Outgoing: FALSE

Incoming: // return assay outcome for Nc1ccc(Nc2nc3ccccc3[nH]2)cc1
Outgoing: TRUE

Incoming: Lab log entry: COc1ccc(CC(=O)n2[nH]c(=O)ccc2=O)cc1OC — outcome as called in the assay?
Outgoing: FALSE

Incoming: Please let me know the test result on file for OCC1CCCN(C(=S)Nc2ccc(Nc3ccccc3)cc2)C1 (configuration not stated) .
Outgoing: TRUE

###

Test details: counter assay for TAg ATPase ADP read-out – biochemical, ADP-Hunter, fluorescence, counter-screen (AID 2501);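 note: purified T antigen ATPase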
Experimental context: series mostly up to 100 µM
Screen size: about 2,200 compounds; about 1,200 (55%) were called active. The limit is not given here; nearly all actives have IC50 up to about 92 µM. The set was probably picked from earlier hits. The list shows a part of the results.
Hello, when you answer, please use one of the following outcomes: Y = active, N = inactive

A selection of reference data follows.
Incoming: Per the records of this test, what outcome belongs to Cc1cc(Cl)ccc1OCCn1cncn1 ?
Outgoing: N

Incoming: Please let me know the test result on file for CCOc1ccc(NCc2cccn2-c2nnc(N3CCC(C(=O)NCCCN4CC(C)CC(C)C4)CC3)s2)cc1 (stereo not drawn) .
Outgoing: Y

Incoming: Can you look up the reported call for Cn1c(SCC(=O)N/N=C/c2ccc(O)c(O)c2)nc2ccccc21 for me?
Outgoing: Y

Others:
Incoming: Record lookup: outcome of this test for CCCOc1ccccc1/C=C1\SC(N2CCCCC2)=NC1=O ?
Outgoing: N

Incoming: Recorded call for COc1cc(/C=N\NC(=O)C2CC3C=CC2C3)ccc1O (stereo not drawn) ?
Outgoing: Y

Incoming: Which result was noted for this compound in the test: CCOc1ccc(NCc2cccn2-c2nnc(N3CCC(C(=O)NCCCN4CCCCC4CC)CC3)s2)cc1 (stereo not drawn)
Outgoing: Y

Incoming: What call does the record list for COc1cc(SC#N)ccc1N=Cc1c(C)[nH]n(-c2ccc(C)cc2C)c1=O ?
Outgoing: N

Incoming: For COc1ccccc1C1/C(=C(/O)c2ccc(C)cc2)C(=O)C(=O)N1CC(C)O (stereo not drawn) , which call appears in the assay record?
Outgoing: N

Incoming: Lab log entry: CS(=O)(=O)N1CCc2cc(C(=O)Nc3ccc(O)cc3)ccc21 — outcome as called in the assay?
Outgoing: Y

###

Test details: counter assay for TAg ATPase ADP read-out – biochemical, ADP-Hunter, fluorescence, counter-screen (AID 2501);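 note: purified T antigen ATPase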
Experimental context: series mostly up to 100 µM
In all, about 2,200 compounds went through this assay and about 1,200 (55%) were called active. The limit is not given here; nearly all actives have IC50 up to about 92 µM. The set was probably picked from earlier hits. The list shows a part of the results.
Output constraint: value belongs to true = active, false = inactive

The following compounds have reported results that may help.
Incoming: Just curious, what result did Cc1ccc2c(c1)C(c1ccccc1)N(C(=O)c1ccc(S(=O)(=O)N3CCOCC3)cc1)CC(=O)N2 (stereo not given) get here?
Outgoing: false

Incoming: Name the outcome recorded for O=C(Cn1c(=O)n(Cc2ccco2)c(=O)c2c3c(sc21)CCCCC3)Nc1ccccc1 in the assay.
Outgoing: false

Incoming: Could you please tell me the result logged for Cc1cc(=O)[nH]c(N/N=C/c2c[nH]c3ccccc23)n1 in this assay?
Outgoing: true

Incoming: Tell me the assay call for CC(C)CC1=NN2C(=N)/C(=C\c3coc4ccccc4c3=O)C(=O)N=C2S1 please.
Outgoing: false

Incoming: Hi team, can someone confirm the assay call for COc1ccc(N2C(=NC(C)=O)SC3CS(=O)(=O)CC32)cc1OC (stereo not given) ?
Outgoing: false

Incoming: What was the test verdict on COc1cc(/C=N/n2cnnc2)ccc1OC(=O)c1ccncc1 ?
Outgoing: true

Next:
Incoming: Short answer needed: outcome of this test for O=C(Nc1ccc(O)cc1)c1ccc2c(c1)C(=O)N(N1C(=O)c3ccccc3C1=O)C2=O ?
Outgoing: true

src = PubChem BioAssay AID2501
